- Tested on: DYRK2
- RECORDED CONDITIONS: concentration: 1 μM,replicates: in singlicate; n = 1;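 note: KINOMEscan kinase panel screen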
Hi! Could you tag entries with %Inh below 20% as label 1, and those at or above as label 0? Much appreciated.

{"COMPOUND": "O=C(Nc1ccc(Oc2ccc3nc(NC(=O)C4CC4)cn3n2)c(F)c1)c1cccn(-c2ccccc2)c1=O", "ANSWER LABEL": "label 1"}
{"COMPOUND": "COc1cc2ncn(-c3cc(OCC4CCCCC4)c(C(N)=O)s3)c2cc1OC", "ANSWER LABEL": "label 0"}
{"COMPOUND": "Cc1ccc2c(-c3ccnc(Nc4ccc(C(F)(F)F)cc4)n3)cnn2n1", "ANSWER LABEL": "label 0"}
{"COMPOUND": "Cc1ccc(CC(=O)N2CCc3cc(-c4cn(C)c5ncnc(N)c45)ccc32)cc1", "ANSWER LABEL": "label 1"}
{"COMPOUND": "Cc1ccn2nc(-c3ccc(F)cc3)c(-c3ccncc3)c2c1.Cl", "ANSWER LABEL": "label 1"}
{"COMPOUND": "C[C@@H]1CNc2c(sc3ccc4nc(-c5ccc(O)cc5)ccc4c23)C(=O)N1", "ANSWER LABEL": "label 0"}
{"COMPOUND": "O=C(Nc1cccc(Oc2ccc3nccn3n2)c1)Nc1cccc(C(F)(F)F)c1", "ANSWER LABEL": "label 1"}
{"COMPOUND": "Cc1nnc(-c2ccc3occ(-c4ccc(S(C)=O)cc4)c3n2)o1 (centres unmarked)", "ANSWER LABEL": "label 1"}
{"COMPOUND": "C[C@@H]1CNc2c(sc3ccc4nc(-c5ccncc5)ccc4c23)C(=O)N1", "ANSWER LABEL": "label 1"}
{"COMPOUND": "NC(=O)Nc1sc(-c2ccc(F)cc2)cc1C(N)=O", "ANSWER LABEL": "label 0"}
{"COMPOUND": "COC(=O)c1cccc(NC(=O)NC2CCN(c3ccnc(NCc4ccc(F)cc4)n3)CC2)c1", "ANSWER LABEL": "label 1"}
{"COMPOUND": "CNC(=O)c1ccccc1Nc1nc(Nc2cccc(CS(C)(=O)=O)c2)ncc1C.O=CO", "ANSWER LABEL": "label 0"}
{"COMPOUND": "CCn1c(-c2nonc2N)nc2cncc(CNC3CCNCC3)c21.Cl", "ANSWER LABEL": "label 0"}
{"COMPOUND": "COc1cccc(C2=C(Nc3cccc(Cl)c3)C(=O)NC2=O)c1", "ANSWER LABEL": "label 1"}
{"COMPOUND": "Cc1n[nH]c2cc(Nc3ccnc(Nc4cccc(CN5CCOCC5)c4)n3)ccc12", "ANSWER LABEL": "label 0"}
{"COMPOUND": "COc1cc2c(Nc3ccc(NC(=O)c4ccccc4)cc3)ncnc2cc1OCCCN1CCOCC1", "ANSWER LABEL": "label 0"}
{"COMPOUND": "CC(=O)Nc1nc2cnc(Nc3cc(NC(=O)c4cccc(CC(C)(C)C#N)c4)ccc3C)nc2s1", "ANSWER LABEL": "label 1"}
{"COMPOUND": "COc1cc(Nc2nccc(N3CCC(NC(=O)c4cccc(C#N)c4)C3)n2)cc(OC)c1OC (centres unmarked)", "ANSWER LABEL": "label 1"}
{"COMPOUND": "O=C1NCCc2[nH]c(-c3ccncc3)cc21", "ANSWER LABEL": "label 0"}
{"COMPOUND": "CS(=O)(=O)c1cccc(CNc2nc(Nc3ccc4c(c3)[C@@H]3C[C@@H]4CNC3=O)ncc2C(F)(F)F)c1", "ANSWER LABEL": "label 1"}
{"COMPOUND": "c1ccc(Oc2ccc(Nc3ccnc4ccc(-c5ccccn5)cc34)cc2)cc1", "ANSWER LABEL": "label 1"}
{"COMPOUND": "Cn1ccc2ncnc(Oc3ccc(NC(=O)Nc4cnn(C(C)(C)C)c4)c(Cl)c3)c21", "ANSWER LABEL": "label 1"}
{"COMPOUND": "O=C(NOCC1CC1)c1cc(Br)c(F)c(F)c1Nc1ccc(I)cc1Cl", "ANSWER LABEL": "label 1"}
{"COMPOUND": "Cn1ccc2ncnc(Oc3ccc(NC(=O)Nc4cccc(C(F)(F)F)c4)c(Cl)c3)c21", "ANSWER LABEL": "label 1"}
{"COMPOUND": "CCNCC(Cc1ccccc1)NC(=O)c1cc(Br)c(-c2ccnc3[nH]ccc23)s1.Cl.Cl (centres unmarked)", "ANSWER LABEL": "label 0"}
{"COMPOUND": "CN1CCN(CCCNc2nccc(-c3c(-c4ccc(F)cc4)nn4cc(C(N)=O)ccc34)n2)CC1", "ANSWER LABEL": "label 1"}
{"COMPOUND": "O=C(Nc1ccccc1)c1cccc(Oc2ccc3nccn3n2)c1", "ANSWER LABEL": "label 1"}
{"COMPOUND": "Cc1ccc(Nc2ccnc(Nc3ccc4c(c3)CS(=O)(=O)C4)n2)cc1O.Cl", "ANSWER LABEL": "label 0"}
{"COMPOUND": "CN(c1ccc2c(c1)nc(NCc1ccc(F)cc1)n2C)c1ccnc(Nc2ccc(CS(C)(=O)=O)cc2)n1.Cl", "ANSWER LABEL": "label 0"}
{"COMPOUND": "C[C@@H](Oc1cc(-n2cnc3cc(-c4ccncc4)ccc32)sc1C(N)=O)c1ccccc1Cl", "ANSWER LABEL": "label 0"}
{"COMPOUND": "Cn1ccc2ncnc(Oc3ccc(NC(=O)Nc4cncc(C(F)(F)F)c4)c(Cl)c3)c21", "ANSWER LABEL": "label 1"}
{"COMPOUND": "CN(c1cccc(CNc2nc(Nc3ccc4c(c3)CC(=O)N4)ncc2C(F)(F)F)c1)S(C)(=O)=O", "ANSWER LABEL": "label 0"}
{"COMPOUND": "Nc1nccc(-c2ccc3c(N)n[nH]c3c2)n1", "ANSWER LABEL": "label 0"}
{"COMPOUND": "CC(C)S(=O)(=O)N1CCN(Cc2ccc3c(c2)nc(NC(=O)c2ccsc2)n3C[C@H](O)c2ccccc2)CC1", "ANSWER LABEL": "label 0"}
{"COMPOUND": "O=C(NCC1CC1)c1ccc(-c2cc(C(=O)NC3CC3)ccc2F)cc1", "ANSWER LABEL": "label 1"}

---

- Test system: CDK2
- RECORDED CONDITIONS: concentration: 1 μM,replicates: in singlicate; n = 1

{"MOLECULE": "O=C(NCC1CC1)c1ccc(-c2cc(C(=O)NC3CC3)ccc2F)cc1 [GW810445]", "TESTED SYSTEM": "CDK2", "%Inh": "0%"}
{"MOLECULE": "CNC(=O)c1ccccc1Nc1nc(Nc2cccc(CS(C)(=O)=O)c2)ncc1C.O=CO [GSK1520489]", "TESTED SYSTEM": "CDK2", "%Inh": "16%"}
{"MOLECULE": "COc1cccc(CNC(=O)NC2CCN(c3ccnc(Nc4cc(OC)c(OC)c(OC)c4)n3)C2)c1 (centres unmarked) [GSK1379765]", "TESTED SYSTEM": "CDK2", "%Inh": "0%"}
{"MOLECULE": "Cc1cccc2c(-c3ccncc3)c(-c3ccc(F)cc3)nn12.Cl [GW461487]", "TESTED SYSTEM": "CDK2", "%Inh": "0%"}
{"MOLECULE": "NC(=O)c1ccc(-c2cc3ncnc(SCC(=O)O)c3s2)cc1", "TESTED SYSTEM": "CDK2", "%Inh": "0%"}

---

- System: RSK2(Kin.Dom.2-C-terminal)
- Construct: gene RPS6KA3
- RECORDED CONDITIONS: concentration: 1 μM,replicates: in singlicate; n = 1
ASSAY READOUT: %Inh (%)

{"COMPOUND": "CCN1CCN(CCCC(=O)Nc2n[nH]c3nc(-c4ccc(O)cc4)c(Br)cc23)CC1", "ASSAY READOUT": "%Inh", "MEASURED": 0}
{"COMPOUND": "Cc1ccc(CC(=O)N2CCc3cc(-c4cn(C)c5ncnc(N)c45)ccc32)cc1", "ASSAY READOUT": "%Inh", "MEASURED": 4}
{"COMPOUND": "O=C(Nc1cccc(Oc2ccc3nccn3n2)c1)Nc1cccc(C(F)(F)F)c1", "ASSAY READOUT": "%Inh", "MEASURED": 25}
{"COMPOUND": "CCCC(=O)Nc1n[nH]c2ncccc12", "ASSAY READOUT": "%Inh", "MEASURED": 0}
{"COMPOUND": "O=C(Nc1n[nH]c2cc(-c3ccco3)ccc12)C1CC1", "ASSAY READOUT": "%Inh", "MEASURED": 0}
{"COMPOUND": "CNC(=O)c1ccccc1Nc1nc(Nc2cccc(CS(C)(=O)=O)c2)ncc1C.O=CO", "ASSAY READOUT": "%Inh", "MEASURED": 12}
{"COMPOUND": "Cn1ccc2ncnc(Oc3ccc(NC(=O)Nc4cccc(C(F)(F)F)c4)c(F)c3)c21", "ASSAY READOUT": "%Inh", "MEASURED": 13}
{"COMPOUND": "Cl.Nc1n[nH]c2cc(-c3ccccn3)ccc12", "ASSAY READOUT": "%Inh", "MEASURED": 0}
{"COMPOUND": "c1ccc(Oc2ccc(Nc3ccnc4ccc(-c5ccccn5)cc34)cc2)cc1", "ASSAY READOUT": "%Inh", "MEASURED": 8}
{"COMPOUND": "Cn1ccc2ncnc(Oc3ccc(NC(=O)Nc4cnn(C(C)(C)C)c4)c(Cl)c3)c21", "ASSAY READOUT": "%Inh", "MEASURED": 0}
